target: Human recombinant DHX9 protein (Homo sapiens (Human)); assay: DHX9 ATPase assay (ADP-Glo); conditions: read-out: DHX9 Biochemical Inflection Point
Sequence (Q08211 whole entry): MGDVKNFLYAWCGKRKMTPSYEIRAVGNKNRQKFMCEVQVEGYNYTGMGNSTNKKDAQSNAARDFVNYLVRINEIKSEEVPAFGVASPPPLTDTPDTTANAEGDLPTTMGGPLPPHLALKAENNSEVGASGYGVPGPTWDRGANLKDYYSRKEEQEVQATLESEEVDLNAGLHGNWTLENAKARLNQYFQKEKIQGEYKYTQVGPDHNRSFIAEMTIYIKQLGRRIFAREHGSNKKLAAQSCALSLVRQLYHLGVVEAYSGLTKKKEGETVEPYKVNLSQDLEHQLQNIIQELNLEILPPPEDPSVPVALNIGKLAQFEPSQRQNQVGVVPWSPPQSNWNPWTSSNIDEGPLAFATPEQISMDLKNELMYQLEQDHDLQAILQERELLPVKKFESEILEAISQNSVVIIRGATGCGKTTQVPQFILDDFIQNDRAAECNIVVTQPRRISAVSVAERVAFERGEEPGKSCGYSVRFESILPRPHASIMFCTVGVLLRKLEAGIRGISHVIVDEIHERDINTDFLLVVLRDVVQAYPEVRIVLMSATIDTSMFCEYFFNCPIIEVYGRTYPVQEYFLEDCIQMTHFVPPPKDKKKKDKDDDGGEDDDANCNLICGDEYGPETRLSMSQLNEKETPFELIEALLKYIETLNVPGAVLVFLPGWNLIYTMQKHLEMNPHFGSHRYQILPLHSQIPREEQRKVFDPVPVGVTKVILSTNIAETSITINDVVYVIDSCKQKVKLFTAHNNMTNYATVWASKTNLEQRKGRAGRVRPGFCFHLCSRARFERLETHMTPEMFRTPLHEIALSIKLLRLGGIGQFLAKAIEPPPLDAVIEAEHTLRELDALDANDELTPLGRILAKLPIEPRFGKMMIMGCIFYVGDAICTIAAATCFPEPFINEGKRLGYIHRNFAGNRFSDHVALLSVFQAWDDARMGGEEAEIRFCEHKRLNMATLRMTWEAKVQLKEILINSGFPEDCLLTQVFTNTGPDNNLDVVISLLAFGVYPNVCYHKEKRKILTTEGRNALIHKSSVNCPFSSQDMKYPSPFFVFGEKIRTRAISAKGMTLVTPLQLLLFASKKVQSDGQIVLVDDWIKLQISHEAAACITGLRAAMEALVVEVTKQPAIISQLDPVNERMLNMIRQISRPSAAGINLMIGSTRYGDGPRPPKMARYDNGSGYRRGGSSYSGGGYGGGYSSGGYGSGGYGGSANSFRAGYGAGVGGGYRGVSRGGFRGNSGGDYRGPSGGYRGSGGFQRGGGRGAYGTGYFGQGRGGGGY
pIC50: −log10 of the molar value.
PROPERTY MEASURED: pIC50

# example entries with known answers
>  <COMPOUND>
Cc1sc(C(=O)Nc2cc(Cl)cc(NS(C)(=O)=O)c2)cc1-c1ccc(N2CCN(C(=O)C3CC3)CC2)cn1

>  <EXPERIMENTAL SYSTEM>
Human recombinant DHX9 protein (Homo sapiens (Human))

>  <pIC50>
8.23

$$$$
>  <COMPOUND>
Cn1cc(C(=O)Nc2cc(Cl)cc(NS(C)(=O)=O)c2)cc1-c1ccc(N2CC(F)C2)cn1

>  <EXPERIMENTAL SYSTEM>
Human recombinant DHX9 protein (Homo sapiens (Human))

>  <pIC50>
7.74

$$$$
>  <COMPOUND>
CS(=O)(=O)Nc1cc(Cl)cc(NC(=O)c2cc(-c3ncc(F)cn3)n(C3CC3)c2)c1

>  <EXPERIMENTAL SYSTEM>
Human recombinant DHX9 protein (Homo sapiens (Human))

>  <pIC50>
7.25

$$$$
>  <COMPOUND>
Cc1cccnc1-c1csc(C(=O)Nc2cc(Br)cc(NS(C)(=N)=O)c2)c1 (centres unmarked)

>  <EXPERIMENTAL SYSTEM>
Human recombinant DHX9 protein (Homo sapiens (Human))

>  <pIC50>
7.54

$$$$
>  <COMPOUND>
COc1cnc(-n2cc(C(=O)Nc3cc(Cl)cc(NS(C)(=O)=O)c3)cc2C)nc1

>  <EXPERIMENTAL SYSTEM>
Human recombinant DHX9 protein (Homo sapiens (Human))

>  <pIC50>
7.58

$$$$
>  <COMPOUND>
CS(=O)(=O)Nc1cc(F)cc(NC(=O)c2cc(-c3cccnc3)cs2)c1

>  <EXPERIMENTAL SYSTEM>
Human recombinant DHX9 protein (Homo sapiens (Human))

>  <pIC50>
7.10

$$$$

[a] CS(=O)(=O)Nc1cc(Cl)cc(NC(=O)c2cc3c(F)c(F)ccc3s2)c1
[b] Cn1cc(C(=O)Nc2cc(Cl)cc(NS(C)(=O)=O)c2)cc1-c1ncc(N2CC3(C2)CC(F)(F)C3)cn1
Task item: Please let me know which one, a or b , has a lower measured pIC50 value. I would appreciate it if you answered with the label of your choice.
Reply: a
